tested on: TLR2 induced IL-6 in peripheral blood mononuclear cells (PBMCs); test: PBMC TLR2 Induced IL-6 Assay; format: cell-based, human; conditions: Homo sapiens, PBMC, PBMC TLR2 Induced IL-6 Assay; lipoteichoic acid stimulation, IL-6 by ELISA; read-out: Cell IC50
pIC50: −log10 of the molar value.
Measured pIC50 values are reported for all entries that follow.
endpoint: pIC50

CC(C)Nc1cc(-n2ncc3cc(C#N)cnc32)ncc1C(=O)NC[C@@H](F)C(O)(C1CC1)C1CC1; 6.57
CC(C)Nc1cc(-n2ncc3cc(C#N)cnc32)ncc1C(=O)NCCC1CCN(C(=O)CC#N)CC1; 6.94
CC(C)Nc1cc(-n2ncc3cc(C#N)cnc32)ncc1C(=O)NC[C@@H](F)C(C)(C)F; 7.14
CC(C)Nc1cc(-n2ncc3cc(C#N)cnc32)ncc1C(=O)NCCc1ccc(F)cc1; 6.80
CC(C)n1cc(Nc2cc(-n3cnc4cc(Cl)cnc43)ncc2C(=O)NC[C@@H](F)C(C)(C)O)cn1; 6.31
CCCn1cc(Nc2cc(-n3ncc4cc(C#N)cnc43)ncc2C(=O)NC[C@@H](F)C(C)(C)O)cn1; 6.64
CC(C)Nc1cc(-n2ncc3cc(C#N)c(N)nc32)ncc1C(=O)NC1(C#N)CC1; 6.64

----------
test system: TLR2 induced IL-6 in peripheral blood mononuclear cells (PBMCs); assay: PBMC TLR2 Induced IL-6 Assay; type: cell-based, human; conditions: Homo sapiens, PBMC, PBMC TLR2 Induced IL-6 Assay; lipoteichoic acid stimulation, IL-6 by ELISA; read-out: Cell IC50
endpoint: IC50 (µM)

CC(C)Nc1cc(-n2ncc3cc(C#N)cnc32)ncc1C(=O)NC[C@@H](F)C(O)C(C)C (single isomer, unassigned); 0.211
CC(C)Nc1cc(-n2ncc3cc(C#N)cnc32)ncc1C(=O)NCCC1(O)CCOC1 (stereo not shown); 0.364
CC(C)Nc1cc(-n2ncc3cc(C#N)cnc32)ncc1C(=O)N[C@H]1CC[C@H](NC(=O)[C@H](C)O)CC1; 0.204
CC(C)(O)CNc1cc(-n2ccc3cc(C#N)cnc32)ncc1C(=O)NC[C@@H](F)C(C)(C)O; 0.161
CC(C)Nc1cc(-n2ncc3cc(C#N)cnc32)ncc1C(=O)NC[C@@H](F)C(=O)N[C@@H](C)CO; 0.459
CCCNc1cc(-n2ncc3cc(C#N)cnc32)ncc1C(=O)NC[C@@H](F)C(C)(C)O; 0.765
CC(C)Nc1cc(-n2ncc3cc(C#N)cnc32)ncc1C(=O)NCCC(C)(C)NS(C)(=O)=O; 0.8

----------
Target: IRAK4 (Homo sapiens (Human), UniProt Q9NWZ3)
Sequence (Q9NWZ3 whole entry, species assumed): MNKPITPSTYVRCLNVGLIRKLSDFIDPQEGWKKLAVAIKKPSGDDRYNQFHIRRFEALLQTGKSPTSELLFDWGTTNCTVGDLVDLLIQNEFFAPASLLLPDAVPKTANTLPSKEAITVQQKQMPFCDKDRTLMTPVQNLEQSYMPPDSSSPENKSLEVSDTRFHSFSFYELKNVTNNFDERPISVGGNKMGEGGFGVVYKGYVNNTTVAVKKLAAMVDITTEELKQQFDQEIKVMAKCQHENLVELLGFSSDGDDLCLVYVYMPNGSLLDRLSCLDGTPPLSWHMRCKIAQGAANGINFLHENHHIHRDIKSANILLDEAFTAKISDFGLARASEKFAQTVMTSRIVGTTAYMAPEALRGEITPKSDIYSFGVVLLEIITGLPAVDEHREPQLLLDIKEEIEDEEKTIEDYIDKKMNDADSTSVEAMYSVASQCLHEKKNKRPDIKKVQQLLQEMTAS
Assay: IRAK4 Inhibition Assay
Type: biochemical
Settings: IRAK4 Inhibition Assay; ATP 500 μM; read-out: IRAK4 IC50
Description: The assays were performed in U-bottom 384-well plates. […] The reaction was initiated by the combination of IRAK4 with substrates and test compounds. The reaction mixture was incubated at room temperature for 60 min. and terminated by adding 45 μL of 35 mM EDTA to each sample. The reaction mixture was analyzed on the Caliper LABCHIP® 3000 (Caliper, Hopkinton, Mass.) by electrophoretic separation of the fluorescent substrate and phosphorylated product.
pIC50: −log10 of the molar value.
We begin with a simple list: items and their reported pIC50.
endpoint: pIC50

CC(F)[C@H](C)Nc1cc(-n2ncc3cc(C#N)cnc32)ncc1C(=O)NC[C@@H](F)C(C)(C)O (single isomer, unassigned) [Example 202]; 7.97
CC(C)NC(=O)[C@H](F)CNC(=O)c1cnc(-n2ncc3cc(C#N)cnc32)cc1NC(C)C; 8.09
CC(C)CCNC(=O)c1cnc(-n2ncc3cc(C#N)cnc32)cc1NC(C)C; 8.35
CC(C)(O)[C@H](F)CNC(=O)c1cnc(-n2ncc3cc(C#N)cnc32)cc1Nc1cnn(C2COC2)c1; 8.74
CNC(=O)[C@H]1CC[C@H](NC(=O)c2cnc(-n3ncc4cc(C#N)cnc43)cc2NC2CC2)CC1; 8.08
CC(C)CCNC(=O)c1cnc(-n2ncc3cc(C#N)cnc32)cc1N[C@@H](C)CO; 8.25
CC1(Nc2cc(-n3cnc4cc(C#N)cnc43)ncc2C(=O)NC[C@@H](F)C(C)(C)O)CC1; 8.46

----------
biological target: IRAK4 (Homo sapiens (Human), UniProt Q9NWZ3); experiment: IRAK4 Inhibition Assay; assay type: biochemical; details: ATP 500 μM; IRAK4 0.6 nM; read-out: IRAK4 IC50
Overview of recorded IC50 for various molecules
endpoint: IC50 (nM)

CC(C)Nc1cc(-n2ccc3cc(C#N)cnc32)ncc1C(=O)NCCCOC(C)(C)C; 5.5
CC(C)(O)[C@H](F)CNC(=O)c1cnc(-n2ccc3cc(C#N)cnc32)cc1N[C@H]1CCOC1; 3
Cn1nnnc1-c1ccc(Nc2cc(-n3ncc4cc(C#N)cnc43)ncc2C(=O)NC[C@@H](F)C(C)(C)O)cc1; 3
CC(C)(O)[C@H](F)CNC(=O)c1cnc(-n2ncc3cc(C#N)cnc32)cc1NC12CC(C1)C2; 1.8

----------
A collection of molecules and their measured pIC50
biological target: IRAK4 (Homo sapiens (Human), UniProt Q9NWZ3); assay: IRAK4 Inhibition Assay; assay type: biochemical; conditions: IRAK4 Inhibition Assay; ATP 500 μM; read-out: IRAK4 IC50
pIC50: −log10 of the molar value.
endpoint: pIC50

CC(C)Nc1cc(-n2ncc3cc(C#N)cnc32)ncc1C(=O)NCCc1c[nH]cn1; 8.33
CC[C@@H](C)Nc1cc(-n2ncc3cc(C#N)c(N)nc32)ncc1C(=O)NC[C@@H](F)C(C)(C)O; 8.80
CC(C)Nc1cc(-n2ncc3cc(C#N)cnc32)ncc1C(=O)NC[C@@H](F)C(=O)N1CCN(S(C)(=O)=O)CC1; 8.05
CC(C)(O)[C@H](F)CNC(=O)c1cnc(-n2ccc3cc(C#N)cnc32)cc1NC1CCOCC1F (single isomer, unassigned) [Example 106]; 8.72
CC(C)(O)[C@H](F)CNC(=O)c1cnc(-n2ccc3cc(C#N)cnc32)cc1NC12CC3CC(CC(C3)C1)C2; 7.92
[2H]C([2H])([2H])OC(C)(C)[C@H](F)CNC(=O)c1cnc(-n2ncc3cc(C#N)cnc32)cc1NC(C)C; 8.51
CC(C)(O)[C@H](F)CNC(=O)c1cnc(-n2ncc3cc(C#N)cnc32)cc1N[C@H]1CC[C@H](O)CC1; 8.62
CC(C)Nc1cc(-n2ccc3cc(C#N)cnc32)ncc1C(=O)NCCCOC(C)C; 8.25
CC(C)Nc1cc(-n2ncc3cc(F)cnc32)ncc1C(=O)NC[C@@H](F)C(C)(C)O; 8.28
CC(C)Nc1cc(-n2ncc3cc(C#N)cnc32)ncc1C(=O)NC[C@@H](F)C(C)(C)O [Example 335]; 8.48
CC(CCF)Nc1cc(-n2ncc3cc(C#N)cnc32)ncc1C(=O)NC[C@@H](F)C(C)(C)O (mixture of isomers); 8.15
CC(C)(O)CNc1cc(-n2ccc3cc(C#N)cnc32)ncc1C(=O)NC[C@@H](F)C(C)(C)O; 8.59
CC(C)Nc1cc(-n2ncc3cc(C#N)cnc32)ncc1C(=O)NCC(F)(F)C(C)(C)O; 7.98
CC(F)(F)Cn1cc(Nc2cc(-n3ncc4cc(C#N)cnc43)ncc2C(=O)NC[C@@H](F)C(C)(C)O)cn1; 8.77
CC(C)(O)[C@H](F)CNC(=O)c1cnc(-n2cnc3cc(Cl)cnc32)cc1Nc1cnn(CC(F)F)c1; 8.89

----------
compounds and their reported pIC50
molecular target: IRAK4 (Homo sapiens (Human)); experiment: IRAK4 Inhibition Assay; type: biochemical; details: IRAK4 Inhibition Assay; ATP 500 μM; read-out: IRAK4 IC50
pIC50: −log10 of the molar value.
endpoint: pIC50

CC(C)(O)[C@H](F)CNC(=O)c1cnc(-n2ccc3cc(C#N)cnc32)cc1Nc1cccc(C#N)c1 [Example 66]; 8.77
COC[C@H](F)CNC(=O)c1cnc(-n2ncc3cc(C#N)cnc32)cc1NC(C)C [Example 128]; 8.05
CC(C)Nc1cc(-n2ncc3cc(C#N)cnc32)ncc1C(=O)NCCC(C)NS(C)(=O)=O (stereo not shown) [Example 264]; 8.19
CC(C)Nc1cc(-n2ncc3cc(C#N)c(N)nc32)ncc1C(=O)NC[C@@H](C)F [Example 328]; 8.00
CNC(=O)[C@H](F)CNC(=O)c1cnc(-n2ncc3cc(C#N)cnc32)cc1NC(C)C [Example 229]; 8.02
CC(C)Nc1cc(-n2ccc3cc(C#N)cnc32)ncc1C(=O)NC[C@@H](F)C(C)NC(C)C (single isomer, unassigned) [Example 130]; 8.64
CC(C)Nc1cc(-n2ccc3cc(C#N)ccc32)ncc1C(=O)NC[C@@H](F)C(C)(C)O [Example 1]; 8.48

----------
test system: TLR2 induced IL-6 in peripheral blood mononuclear cells (PBMCs); experiment: PBMC TLR2 Induced IL-6 Assay; type: cell-based, human; settings: Homo sapiens, PBMC, PBMC TLR2 Induced IL-6 Assay; lipoteichoic acid stimulation, IL-6 by ELISA; read-out: Cell IC50
pIC50: −log10 of the molar value.
Recorded pIC50 values for a group of compounds are listed next.
endpoint: pIC50

CC(C)CNC(=O)c1cnc(-n2ncc3cc(C#N)cnc32)cc1Nc1cnn(CC(F)F)c1; 6.62
CC(C)Nc1cc(-n2ncc3cc(C#N)cnc32)ncc1C(=O)NCCC1CCN(C)CC1; 7.14
CC(C)(O)[C@H](F)CNC(=O)c1cnc(-n2ncc3cc(C#N)cnc32)cc1Nc1cnn(C2CCOCC2)c1; 6.74
C[C@@H](CO)Nc1cc(-n2ncc3cc(C#N)cnc32)ncc1C(=O)NCCC1CC1; 6.73
CC(F)(F)Cn1cc(Nc2cc(-n3ncc4cc(Cl)cnc43)ncc2C(=O)NC[C@@H](F)C(C)(C)O)cn1; 7.49
CCNc1cc(-n2ccc3cc(C#N)cnc32)ncc1C(=O)NC[C@@H](F)C(C)(C)O; 6.80
CC(C)(O)[C@H](F)CNC(=O)c1cnc(-n2ccc3cc(C#N)cnc32)cc1NC1CCC1; 6.61
CC(C)(O)[C@H](F)CNC(=O)c1cnc(-n2ccc3cncnc32)cc1NC1CC1; 6.66

The values you see were collected from patent US9169252B2.
